Numbers sourced from the RNAGym collection of RNA variant scans (doi:10.1126/science.aae0568).

B1: tRNA (parent)
chain: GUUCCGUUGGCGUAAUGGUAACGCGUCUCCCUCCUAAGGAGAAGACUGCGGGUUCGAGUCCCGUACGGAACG

Variants of: B1
experiment: yeast fitness relative to wild type (ratio to wild type); higher = fitter; tRNA-Arg(CCU), competitive growth, 37 C, YPD
This sample holds only a part of the variants without activity.
property: yeast fitness

> print(dat)
                                variantcode       property    val
1                            A37U G63C A69C  yeast fitness  ≤ 0.5
2                        C4U C11U C24A U47G  yeast fitness  0.557
3                       A20G C22G C30U U54C  yeast fitness  ≤ 0.5
4                                 U32A A42C  yeast fitness  0.817
5  U7C A15U C34A G39C A40C G56C C61G C62G G68C  yeast fitness  ≤ 0.5
6                       C11U G23C C27A A69U  yeast fitness  ≤ 0.5

Asked: Quick one: yeast fitness for C24G C33G G50U U59C ?
Given back: ≤ 0.5

Asked: Endpoint output: yeast fitness of A42C C62U . Value?
Given back: 0.829

Asked: Need yeast fitness of G12C U19C , thanks.
Given back: 0.66
